# Test system: CMS
# Parameters: species or system AML cell lines (8); Primary HTS, single concentration about 10 uM, Cell Titer Glo viability; log10 luminescence, per cent inhibition relative to cycloheximide control
# reported conditions: 72 h, relative to cycloheximide control, log10 luminescence; inhibitor
recorded metric: CMS %inh (%)
Unit % implied. Number only.

Check out these entries, answers already filled in.
>>> value_reported("Cn1c(=O)c(Oc2ccc(F)cc2F)cc2cnc(NC(CO)CO)nc21")
-1.976
>>> value_reported("Fc1ccc(-c2ncn(CCCN3CCOCC3)c2-c2ccncc2)cc1 [SJ000573144-1, LDD-19018-277B]")
-0.05724

Kindly note the recorded CMS %inh for `CCCCCCCCCCCCCCSCC(=O)O` , which is -0.2083

Kindly note the recorded CMS %inh for `CCCN(CCS(C)(=O)=O)Cc1ccc(-c2ccc3ncnc(Nc4ccc(OCc5cccc(F)c5)c(Cl)c4)c3c2)o1` , which is -1.914

Kindly note the recorded CMS %inh for `Cc1ccc(Nc2nccc(N(C)c3ccc4c(C)n(C)nc4c3)n2)cc1S(N)(=O)=O` , which is 28.45

Kindly note the recorded CMS %inh for `NC(=O)Cc1ccccc1Oc1nccc(-c2c(-c3ccc(F)cc3)ncn2C2CCNCC2)n1` , which is 1.576

Kindly note the recorded CMS %inh for `CCN(CC)Cc1ccc(Nc2nccc(-c3cnn4ncccc34)n2)cc1` , which is 102.8

Kindly note the recorded CMS %inh for `Cc1ccc2c(-c3ccnc(Nc4ccc5c(c4)OCCO5)n3)c(-c3ccc(C(F)(F)F)cc3)nn2n1` , which is -0.8147

====

# Test system: CMS
# Parameters: species or system AML cell lines (8); Primary HTS, single concentration about 10 uM, Cell Titer Glo viability; log10 luminescence, per cent inhibition relative to cycloheximide control
# reported conditions: 72 h, relative to cycloheximide control, log10 luminescence; inhibitor
Overview of recorded CMS %inh for various compounds
Unit % implied. Number only.

>>> value_reported("CC(C)C[C@H](N)[C@](O)(Cc1cnc[nH]1)C(=O)O [SJ000772431-1, LEUHISTIN]")
1.294

Kindly note the recorded CMS %inh for COc1cc2ncn(-c3cc(OCc4ccccc4C(F)(F)F)c(C(=O)N(C)C)s3)c2cc1OC [SJ000573307-1, U22436/129/1] , which is -4.162

Kindly note the recorded CMS %inh for COC(=O)/C=C/c1cccc(N(Cc2ccc(-c3ccc(N(C)C)cc3)cc2)C(=O)C2CCCCC2)c1 [SJ000546510-1, FEXARAMINE] , which is 0.8467

====

# Tested on: CHRF288-11
# Set-up: species or system AML cell lines (8); Primary HTS, single concentration about 10 uM, Cell Titer Glo viability; log10 luminescence, per cent inhibition relative to cycloheximide control
# reported conditions: 72 h, relative to cycloheximide control, log10 luminescence; inhibitor
recorded metric: CHRF288-11 %inh (%)
Unit % implied. Number only.

Check out these entries, answers already filled in.
>>> value_reported("FC(F)(F)c1cccc(Nc2nccc(-c3cnn4nc(-c5ccccc5)ccc34)n2)c1 [SJ000573250-1, U17838/151/2]")
8.085
>>> value_reported("CO[C@H]1O[C@@H]2O[C@@]3(C)CC[C@H]4[C@H](C)CC[C@@H]([C@H]1C)[C@@]24OO3 [SJ000519015-1]")
-0.3434
>>> value_reported("O=C1NC(=O)C(c2ccccc2Cl)=C1Nc1cccc(O)c1 [SJ000573183-1, BS98679-018A5]")
41.21
>>> value_reported("COc1cc(Nc2nccc(-c3cnn4ncccc34)n2)cc(OC)c1 [SJ000573274-1, U16419/146/1]")
52.5

Kindly note the recorded CHRF288-11 %inh for O=C1Nc2ccc(C(=O)c3ccco3)cc2C1=Cc1cc(Cl)c(O)c(Cl)c1 [SJ000573076-1, U12068/71/3] , which is 1.037

Kindly note the recorded CHRF288-11 %inh for C[C@]12CCC(=O)C=C1CC[C@@H]1[C@@H]2C(=O)C[C@@]2(C)[C@H]1CC[C@]2(O)C(=O)CO [SJ000287023-7, CORTISONE] , which is 8.551

Kindly note the recorded CHRF288-11 %inh for COc1ccc(CNC(=O)c2ccc(-c3cc(-c4nnc(C)o4)ccc3C)cc2)cc1 [SJ000573240-1, R5419/62/2] , which is 2.517

====

# System: CMS
# procedure summary: Secondary dose-response HTS, Cell Titer Glo
# Format: cell-based, human
# reported conditions: secondary high-throughput screen; CMS
recorded metric: average effective concentration, CMS

>>> value_reported("Cn1c(/C=C/C(=O)NO)ccc1/C=C/C(=O)c1cccc(F)c1")
"Inactive"
>>> value_reported("CC(C)(O)[C@@H]1CC[C@](C)([C@H]2[C@@H](O)C[C@@]3(C)[C@@H]4C[C@H](O[C@@H]5O[C@H](CO)[C@@H](O)[C@H](O)[C@H]5O)[C@H]5C(C)(C)[C@@H](O[C@@H]6OC[C@@H](O)[C@H](O)[C@H]6O)CC[C@@]56C[C@@]46CC[C@]23C)O1 [ASTRAGALOSIDE IV]")
"Inactive"
>>> value_reported("O=C1NC(=O)/C(=C/c2cccc(C(F)(F)F)c2)S1")
"Inactive"

====

# System: MOLM-13
# Set-up: species or system AML cell lines (8); Primary HTS, single concentration about 10 uM, Cell Titer Glo viability; log10 luminescence, per cent inhibition relative to cycloheximide control
# reported conditions: 72 h, relative to cycloheximide control, log10 luminescence; inhibitor
Counter-ions that a name gives are not always drawn.
recorded metric: MOLM-13 %inh
Write the quantity with the unit trailing the number.

>>> value_reported("[O-][S+]1CCN(Cc2ccc(-c3ccc4ncnc(Nc5ccc(OCc6cccc(F)c6)c(Cl)c5)c4c3)o2)CC1 [SJ000573006-1, U16708/127/1]")
"-0.7641%"
>>> value_reported("O=C1NC(=NCCc2ccc(F)cc2)S/C1=C\\c1ccc2ncccc2c1 [SJ000580954-1]")
"4.197%"
>>> value_reported("Cn1cc(C2=C(c3cn(C)c4ccc(OCc5ccccc5)cc34)C(=O)NC2=O)c2ccccc21 [SJ000581064-1]")
"-0.8092%"
>>> value_reported("O=C1NC(=O)C(c2cccc(Cl)c2)=C1Nc1ccc(O)c(Cl)c1 [SJ000573172-1, RS98844-062A3]")
"11.18%"
>>> value_reported("Cn1c(=O)c(Sc2ccccc2F)cc2cnc(NC3CCOCC3)nc21 [SJ000581094-1]")
"-2.304%"

Kindly note the recorded MOLM-13 %inh for COC(=O)Nc1nc2cc(Oc3ccc(NC(=O)Nc4cccc(C(=O)O)c4)cc3)ccc2[nH]1 [SJ000573163-1, T261/87/3] , which is 34.2%

Kindly note the recorded MOLM-13 %inh for CCCN1CCC(c2ccc(Nc3nc(Nc4cc(F)ccc4C(N)=O)c4cc[nH]c4n3)c(OC)c2)CC1 [SJ000573328-1, U23536/58/1] , which is 66.64%

Kindly note the recorded MOLM-13 %inh for CC(=O)CCCCn1c(=O)c2c(ncn2C)n(C)c1=O [SJ000285992-7, PENTOXIFYLLINE] , which is 0.7772%

Kindly note the recorded MOLM-13 %inh for N=C(N)NCCN1CCCCCCC1 [SJ000285779-4, GUANETHIDINE SULFATE] , which is -0.2658%

Kindly note the recorded MOLM-13 %inh for C[C@@H]1C[C@H]2[C@@H]3C[C@H](F)C4=CC(=O)C=C[C@]4(C)[C@@]3(F)[C@@H](O)C[C@]2(C)[C@@]1(O)C(=O)CO [SJ000287102-3, FLUMETHASONE] , which is 0.6987%

Kindly note the recorded MOLM-13 %inh for COc1cc[nH]c1/C=C1\C(=O)Nc2ccc([N+](=O)[O-])c(N3CC[C@@H](O)C3)c21 [SJ000581128-1] , which is 123.9%

Kindly note the recorded MOLM-13 %inh for CCOc1ccc2c(-c3ccnc(Nc4cc(OC)cc(C(F)(F)F)c4)n3)cnn2n1 [SJ000573233-1, U17838/82/6] , which is -2.068%

Kindly note the recorded MOLM-13 %inh for CCCCC1C(=O)N(c2ccccc2)N(c2ccc(O)cc2)C1=O (stereo not drawn) [SJ000285591-4, OXYPHENBUTAZONE] , which is -3.833%

Kindly note the recorded MOLM-13 %inh for CNCC(O)c1ccc(OC(=O)C(C)(C)C)c(OC(=O)C(C)(C)C)c1 (stereo not drawn) [SJ000287343-2, DIPIVEFRIN HYDROCHLORIDE] , which is 33.32%

Kindly note the recorded MOLM-13 %inh for CCc1cccc(CC)c1/C=C/c1cncc(C(=O)NC)c1 [SJ000573062-1, U12068/83/1] , which is 18.25%
